Form field: MIC (one value per entry).
System: Bacillus cereus (ATCC 11778)

Record excerpt, results attached:
COC(=O)c1cn(C2CC2)c2cc(N3CCN(C(=O)c4c(C)nnn4-c4ccc(C(F)(F)F)cc4)CC3)c(F)cc2c1=O ... > 500 µg/mL
COC(=O)c1cn(C2CC2)c2cc(N3CCN(C(=O)c4c(C)nnn4-c4ccc(F)cc4)CC3)c(F)cc2c1=O ... > 500 µg/mL
COC(=O)c1cn(C2CC2)c2cc(N3CCN(C(=O)c4c(C)nnn4Cc4cccc(F)c4)CC3)c(F)cc2c1=O ... > 500 µg/mL
COC(=O)c1cn(C2CC2)c2cc(N3CCN(C(=O)c4c(C)nnn4-c4ccc([N+](=O)[O-])cc4)CC3)c(F)cc2c1=O ... > 500 µg/mL
COC(=O)c1cn(C2CC2)c2cc(N3CCN(C(=O)c4c(C)nnn4Cc4ccc(F)cc4)CC3)c(F)cc2c1=O ... 500 µg/mL

We next turn to a different molecule, shown below.
**Query** Record COC(=O)c1cn(C2CC2)c2cc(N3CCN(C(=O)c4c(C)nnn4-c4ccc(Cl)cc4)CC3)c(F)cc2c1=O : what is its MIC with Bacillus cereus (ATCC 11778)?
**Result** 500 µg/mL

###

Form field: pIC50 (one value per entry).
Test system: glioblastoma (U-87 MG) cells
experiment: MTT cytotoxicity assay, U-87 MG
Type: cell-based, human
test parameters: Homo sapiens, U-87 MG, 96 h, read-out: IC50 U87
Note on pIC50: it is the negative log10 of concentration, concentration in mol/L.

Record excerpt, results attached:
COC(=O)c1cn(C2CC2)c2cc(N3CCN(C(=O)c4c(C)nnn4Cc4cccc(F)c4)CC3)c(F)cc2c1=O [Compound 6b] ... 5.92
COC(=O)c1cn(C2CC2)c2cc(N3CCN(C(=O)c4c(C)nnn4-c4ccc(F)cc4)CC3)c(F)cc2c1=O [Compound 6f] ... 5.10
COC(=O)c1cn(C2CC2)c2cc(N3CCN(C(=O)c4c(C)nnn4Cc4ccc(F)cc4)CC3)c(F)cc2c1=O [Compound 6a] ... 4.46

**Query** Record COC(=O)c1cn(C2CC2)c2cc(N3CCN(C(=O)c4c(C)nnn4-c4ccc([N+](=O)[O-])cc4)CC3)c(F)cc2c1=O [Compound 6e] : what is its pIC50 with glioblastoma (U-87 MG) cells?
**Result** 4.35

**Query** Record COC(=O)c1cn(C2CC2)c2cc(N3CCN(C(=O)c4c(C)nnn4-c4ccc(C(F)(F)F)cc4)CC3)c(F)cc2c1=O [Compound 6d] : what is its pIC50 with glioblastoma (U-87 MG) cells?
**Result** 5.42

**Query** Record COC(=O)c1cn(C2CC2)c2cc(N3CCN(C(=O)c4c(C)nnn4-c4ccc(Cl)cc4)CC3)c(F)cc2c1=O [Compound 6c] : what is its pIC50 with glioblastoma (U-87 MG) cells?
**Result** 4.91

###

Test system: breast cancer (MCF7) cells
experiment: MTT cytotoxicity assay, MCF7
Format: cell-based, human
test parameters: IC50 in HDF / IC50 in MCF-7, 96 h
# label = true if SI MCF-7 (selectivity index) < 4 else false

Solved entries:
COC(=O)c1cn(C2CC2)c2cc(N3CCN(C(=O)c4c(C)nnn4Cc4cccc(F)c4)CC3)c(F)cc2c1=O [Compound 6b] ... false
N.N.[Cl][Pt][Cl] [Cisplatin, reference compound] ... true
COC(=O)c1cn(C2CC2)c2cc(N3CCN(C(=O)c4c(C)nnn4-c4ccc([N+](=O)[O-])cc4)CC3)c(F)cc2c1=O [Compound 6e] ... true

**Query** Criterion: SI MCF-7 (selectivity index) strictly below 4. Is it met by COC(=O)c1cn(C2CC2)c2cc(N3CCN(C(=O)c4c(C)nnn4-c4ccc(Cl)cc4)CC3)c(F)cc2c1=O [Compound 6c] ?
**Result** false

**Query** Criterion: SI MCF-7 (selectivity index) strictly below 4. Is it met by COC(=O)c1cn(C2CC2)c2cc(N3CCN(C(=O)c4c(C)nnn4-c4ccc(C(F)(F)F)cc4)CC3)c(F)cc2c1=O [Compound 6d] ?
**Result** true

**Query** Criterion: SI MCF-7 (selectivity index) strictly below 4. Is it met by COC(=O)c1cn(C2CC2)c2cc(N3CCN(C(=O)c4c(C)nnn4Cc4ccc(F)cc4)CC3)c(F)cc2c1=O [Compound 6a] ?
**Result** false

**Query** Criterion: SI MCF-7 (selectivity index) strictly below 4. Is it met by COC(=O)c1cn(C2CC2)c2cc(N3CCN(C(=O)c4c(C)nnn4-c4ccc(F)cc4)CC3)c(F)cc2c1=O [Compound 6f] ?
**Result** false
